Test system: RSV strain A2
procedure_details: RSV antiviral cytoprotection assay in Hep2 cells (96-well and 384-well format, Cell TiterGlo read-out)
Type: cell-based, Respiratory Syncytial Virus (RSV)
test_parameters: human respiratory syncytial virus, HEp-2, 0.5 uM; RSV-induced cytopathic effect in Hep2 cells; calculated from fitted dose response curve, normalized to 0% and 100%
Here, each record is paired with measured inhibition at 0.5 µM data.
The figure you give is taken to be in %; do not add the unit.

Would you please look over these solved cases?
Cc1cn2nc([C@@H]3CCCCN3C(=O)c3cc(-c4cccnc4)n[nH]3)cc2nc1N1CC[C@H](N)C1 [Compound 384] | 48
Cc1ccc(C)c(C(=O)N2CCCC[C@H]2c2cc3nc(N4CC[C@H](N)C4)c(C)cn3n2)c1 [Compound 161] | 100
Cc1cn2nc([C@@H]3CCCCN3C(=O)c3ccc4[nH]c(C)c(C)c4c3)cc2nc1N1CC[C@H](N)C1 [Compound 386] | 97

# ---- query compound ----
**Q:** Given the compound COc1cc(Cl)cc(C(=O)N2CCCC[C@H]2c2cc3nc(N4CC[C@H](N)C4)c(C)cn3n2)c1 [Compound 376] , write its reported inhibition at 0.5 µM.
**A:** 100

Where do the numbers come from? From patent US9238039B2.
